Target: TOPFlash luciferase reporter (three wild-type Tcf binding sites) in β-catenin-activated HEK239
Test: Wnt-responsive TOPFlash luciferase reporter assay, β-catenin-activated HEK293
Assay type: cell-based
Conditions: 24 h treatment; mean ± SD (n = 3)
attribute measured: IC50 (µM)
Answers are plain numbers, in µM.

Ask | Name the recorded IC50 for O=C(Nc1ccc(O[C@H]2CCNC2)c(-c2ccc(F)cc2)c1)c1ccc(O[C@H]2CCNC2)c(C2CCC(C(F)(F)F)CC2)c1 (stereo partly shown) .
Reply | 10

* * *

Molecular target: β-catenin/BCL9 (Homo sapiens (Human), UniProt P35222)
Sequence (P35222 whole entry): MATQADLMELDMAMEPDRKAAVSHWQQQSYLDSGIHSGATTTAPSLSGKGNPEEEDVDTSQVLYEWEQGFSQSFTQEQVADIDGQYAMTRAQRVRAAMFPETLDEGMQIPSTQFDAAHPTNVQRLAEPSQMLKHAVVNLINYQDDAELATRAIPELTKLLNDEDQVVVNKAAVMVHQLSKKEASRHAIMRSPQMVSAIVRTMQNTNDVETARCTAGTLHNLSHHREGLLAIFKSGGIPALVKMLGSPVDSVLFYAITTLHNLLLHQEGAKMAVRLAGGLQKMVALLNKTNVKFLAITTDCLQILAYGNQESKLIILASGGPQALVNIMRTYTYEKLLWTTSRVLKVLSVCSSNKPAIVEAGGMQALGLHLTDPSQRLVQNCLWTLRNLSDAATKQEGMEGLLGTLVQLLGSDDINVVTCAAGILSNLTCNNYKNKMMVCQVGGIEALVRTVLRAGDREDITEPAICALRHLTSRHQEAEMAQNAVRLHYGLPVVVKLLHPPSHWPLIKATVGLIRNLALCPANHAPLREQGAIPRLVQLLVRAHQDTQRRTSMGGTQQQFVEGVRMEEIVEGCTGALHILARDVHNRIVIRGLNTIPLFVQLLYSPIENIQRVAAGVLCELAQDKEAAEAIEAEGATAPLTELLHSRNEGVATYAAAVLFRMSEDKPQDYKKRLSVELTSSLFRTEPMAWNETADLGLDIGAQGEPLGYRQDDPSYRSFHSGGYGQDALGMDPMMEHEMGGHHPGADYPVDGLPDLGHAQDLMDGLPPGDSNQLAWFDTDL
Assay: AlphaScreen competitive inhibition assay of the β-catenin/BCL9 interaction
Type: binding
Settings: read-out: Ki ± SD β-catenin/BCL9
Counter-ions that a name gives are not always drawn.
attribute measured: Ki (µM)
Numbers only, in µM.

Ask | For Fc1ccc(-c2cc(-c3ccc4cc(O[C@H]5CCNC5)c(-c5ccc(F)c(F)c5)cc4n3)ccc2O[C@H]2CCNC2)cc1 [Compound 1, dihydrochloride] , what is its reported Ki?
Reply | 8

* * *

Test system: A549
Assay: MTs growth inhibition assay, A549
Type: cell-based
Settings: Wnt-latent; mean ± SD (n = 3)
Structures can show the parent of a compound that is named as a salt.
attribute measured: IC50 (µM)
Answers are plain numbers, in µM.

In [3]: df
Out[3]:
                                   compound  assay_value
0  O=C(Nc1ccc(O[C@H]2CCNC2)c(-c2ccc(F)cc2)c1)c1ccc(O[C@H]2CCNC2)c(C2CCCCC2)c1 [Compound 3, dihydrochloride]          3.8

Would you mind giving IC50 for every compound in the list below?
1. O=C(Nc1ccc(O[C@H]2CCNC2)c(-c2ccc(F)cc2)c1)c1ccc(O[C@H]2CCNC2)c(C2CCC(C(F)(F)F)CC2)c1 (stereo partly drawn)
2. O=C(Nc1ccc(O[C@H]2CCNC2)c(-c2ccc(F)cc2)c1)c1ccc(O[C@H]2CCNC2)c(C2=CCCCC2)c1 [Compound 4, dihydrochloride]

Reply |
4.8
8.9

* * *

Molecular target: β-catenin/BCL9 (Homo sapiens (Human), UniProt P35222)
Assay: AlphaScreen competitive inhibition assay of the β-catenin/BCL9 interaction
Assay type: binding
Conditions: AlphaScreen; mean ± standard deviation (n = 3); Ki derived from IC50; read-out: Ki ± SD β-catenin/BCL9
Method: AlphaScreen Assays. All experiments were performed in shite opaque 384-well plates from PerkinElmer (Waltham, MA) with an assay buffer of 25 mM HEPES (pH=7.4), 100 Mm nAcL, 0.1% BSA, and 0.01% Triton X-100. All sample signals were read on a excitation wavelength was set at 680 nm and emission at 570 nm. […] The data were analyzed by nonlinear least-square analyses using GraphPad Prism 5.0. Each experiment was repeated three times, and the results were expressed as mean ±standard deviation. […]
Counter-ions that a name gives are not always drawn.
attribute measured: pKi
Give bare numbers, as −log10 of the molar value.

Solved cases (2 shown):
                                   compound                               target_desc  assay_value
0  O=C(Nc1ccc(O[C@H]2CCNC2)c(-c2ccc(F)cc2)c1)c1ccc(O[C@H]2CCNC2)c(C2=CCCCC2)c1 [Compound 4, dihydrochloride]  β-catenin/BCL9 (Homo sapiens (Human), UniProt P35222)         5.15
1  O=C(Nc1ccc(O[C@H]2CCNC2)c(-c2ccc(F)cc2)c1)c1ccc(O[C@H]2CCNC2)c(C2CCC(C(F)(F)F)CC2)c1 (stereo partly drawn)  β-catenin/BCL9 (Homo sapiens (Human), UniProt P35222)         5.38

Ask | Entry O=C(Nc1ccc(O[C@H]2CCNC2)c(-c2ccc(F)cc2)c1)c1ccc(O[C@H]2CCNC2)c(C2CCCCC2)c1 [Compound 3, dihydrochloride] : reported pKi = ?
Reply | 4.85
